Reference for the values: the supplement of paper PMC13380429

Assign drug sensitivity score to each entry below.
- Tested on: HepG2
- testSummary: drug sensitivity score (DSS) for viability; higher = more toxic; extreme values may be limits of the assay
- setupConditions: 72 h
Output spec: single numeric token, no unit.

Req: What value of measured drug sensitivity score is listed for O=c1c(-c2ccccc2)c1-c1ccccc1 ?
Resp: 0.2

Req: Now try COc1ccccc1N1CCN(CCCCNC(=O)c2ccc(-c3ccc(C(C)=O)cc3)cc2)CC1 .
Resp: 0.5

Req: How about CN([C@@H](Cc1ccc(OS(=O)(=O)c2cccc3cnccc23)cc1)C(=O)N1CCN(c2ccccc2)CC1)S(=O)(=O)c1cccc2cnccc12 ?
Resp: 0

Req: # iterate: COc1cc2c(CCNC(C)=O)c[nH]c2cc1Cl
Resp: 0

Req: Okay, and COc1cc2c(NC3CCN(C(C)C)CC3)nc(C3CCCCC3)nc2cc1OCCCN1CCCC1 ?
Resp: 3.1

Req: What would you report for NC(=O)CN1CCCC1=O ?
Resp: 0

Req: For CN/C(=N\c1ccc(C2=NNC(=O)CC2C)cc1)NC#N (stereo unspecified) then?
Resp: 0

Req: Follow-up entry: CCS(=O)(=O)Nc1ccc2c(c1)/C(=C(/Nc1ccc(CN3CCCCC3)cc1)c1ccccc1)C(=O)N2
Resp: 21.5

Req: Try this molecule too: Cc1cc(NC(=O)NCCN2CCC(O)(Cc3ccccc3)CC2)c2ccccc2n1
Resp: 0

Req: Queued: C[N+](C)(C)CCOC(=O)CCC(=O)OCC[N+](C)(C)C [succinylcholine-chloride]
Resp: 0

Req: Ok, now COc1ccc(CNCc2cccc3ccccc23)cc1
Resp: 0

Req: // repeat for CO[C@H]1C[C@H](O[C@H]2[C@H](C)O[C@@H](O[C@@H]3/C(C)=C/C[C@@H]4C[C@@H](C[C@]5(C=C[C@H](C)[C@@H](C6CCCCC6)O5)O4)OC(=O)[C@@H]4C=C(C)[C@@H](O)[C@H]5OC/C(=C\C=C\[C@@H]3C)[C@]54O)C[C@@H]2OC)O[C@@H](C)[C@@H]1O and report
Resp: 2.5

Req: Same question for O=C(NCCN1CCC2(CC1)C(=O)NCN2c1cccc(F)c1)c1ccc(F)c(F)c1 please.
Resp: 0

Req: O=C1NC(=O)C(=Cc2ccc(-c3ccc(F)cc3)o2)S1 (stereo in doubt) , same question.
Resp: 0

Req: Can you handle CCCc1nc(C(C)(C)O)c(C(=O)O)n1Cc1ccc(-c2ccccc2-c2nnn[nH]2)cc1 next?
Resp: 0

Req: Now the same for CCOC(=O)c1ccc(N(C)c2csc(-c3ccccc3)n2)cc1
Resp: 0

* * *

- Tested on: A549-ACE2 infected with SARS-CoV-2
- testSummary: morphology score (similarity to uninfected cells); higher = more like uninfected cells
- setupConditions: 3 µM; 24 h
Record form. Attribute: morphology score. Fill in for each entry.
Form rule: numeric answer, no unit written next to it.

Req: For the molecule CNCCC(Oc1ccc(C(F)(F)F)cc1)c1ccccc1 (centres undefined) , what morphology score is on record?
Resp: 0.65

Req: Record: O=S(=O)(c1cccc2cnccc12)N1CCCNCC1
Resp: 0.17

Req: Moving on to the next molecule: COc1ccc2c(C)nc(Nc3nc(C)c(C)c(O)n3)nc2c1
Resp: 0.36

Req: Field entry: CN1CCN(C2CCN(C(=O)Nc3cc(Oc4ccc(NC(=O)C5(C(=O)Nc6ccc(F)cc6)CC5)c(F)c4)ccn3)CC2)CC1
Resp: 0.64
